- System: nude mice, HT29 intrarenal xenograft, tumor weight T/C
- ASSAY TEXT: NCI In Vivo Anticancer Drug Screen. Data for tumor model HT29;CX-1 Human Adenocarcinoma (MER+) (intrarenal inoculation) in NU/NU Swiss (nude) mice
- EXPERIMENTAL PARAMETERS: endpoint: mean tumor weight change; dose: 300.0 mg/kg/injection; schedule: Q04DX004 (sc); vehicle: saline; higher = larger tumour
Records with an inconclusive call do not appear.
MEASURED PARAMETER: T/C

{"columns": ["MOLECULE", "TEST SYSTEM", "MEASUREMENT"],
 "data": [
  ["N=C(N)Sc1cc(O)ccc1O", "nude mice, HT29 intrarenal xenograft, tumor weight T/C", "54 % of control"],
  ["Nc1cccc(=O)[nH]1", "nude mice, HT29 intrarenal xenograft, tumor weight T/C", "115 % of control"],
  ["C1CC[N-]CC1.C1CC[N-]CC1.C1CC[N-]CC1.[Cl][Rh]([Cl])[Cl]", "nude mice, HT29 intrarenal xenograft, tumor weight T/C", "25 % of control"],
  ["C(COCCOCC1CO1)OCCOCC1CO1 (stereo not given)", "nude mice, HT29 intrarenal xenograft, tumor weight T/C", "55 % of control"],
  ["O=c1ncccn1[C@@H]1O[C@H](CO)[C@H](O)C1O (stereo not given in full)", "nude mice, HT29 intrarenal xenograft, tumor weight T/C", "110 % of control"],
  ["OCC12COCN1COC2", "nude mice, HT29 intrarenal xenograft, tumor weight T/C", "76 % of control"],
  ["NC(N)=NOCC[C@@H](N)C(=O)O", "nude mice, HT29 intrarenal xenograft, tumor weight T/C", "75 % of control"],
  ["NC(=O)NO", "nude mice, HT29 intrarenal xenograft, tumor weight T/C", "86 % of control"],
  ["CCCCCC[C@@H](O)C/C=C\\CCCCCCCC(=O)OCCO", "nude mice, HT29 intrarenal xenograft, tumor weight T/C", "21 % of control"],
  ["C1CNCOC1", "nude mice, HT29 intrarenal xenograft, tumor weight T/C", "91 % of control"],
  ["CCN(CC)CCOCCO", "nude mice, HT29 intrarenal xenograft, tumor weight T/C", "89 % of control"],
  ["C=CCc1cn(C2CC(O)C(CO)O2)c(=O)[nH]c1=O (stereo not given)", "nude mice, HT29 intrarenal xenograft, tumor weight T/C", "71 % of control"],
  ["N=c1ccn2c(n1)OC1C(O)C(CO)OC12 (stereo not given)", "nude mice, HT29 intrarenal xenograft, tumor weight T/C", "50 % of control"],
  ["O=CC(=O)c1ccc(O)cc1", "nude mice, HT29 intrarenal xenograft, tumor weight T/C", "67 % of control"],
  ["CN(C)CC(Cl)CCl (stereo not given)", "nude mice, HT29 intrarenal xenograft, tumor weight T/C", "50 % of control"]
]}

* * *

- Tested on: nude mice, HT29 intrarenal xenograft, tumor weight T/C
- ASSAY TEXT: NCI In Vivo Anticancer Drug Screen. Data for tumor model HT29;CX-1 Human Adenocarcinoma (MER+) (intrarenal inoculation) in NU/NU Swiss (nude) mice
- EXPERIMENTAL PARAMETERS: endpoint: mean tumor weight change; dose: 75.0 mg/kg/injection; schedule: Q04DX004 (sc); vehicle: Klucel (hydroxypropylcellulose) (HPC); higher = larger tumour
Inconclusive results are not listed.
MEASURED PARAMETER: T/C

{"columns": ["MOLECULE", "MEASURED PARAMETER", "MEASUREMENT"],
 "data": [
  ["COC(=O)Nc1cn2cc(C(=O)c3cccs3)ccc2n1", "T/C", "91 % of control"],
  ["CC(C)(C)c1ccc(CN2CCN(C(c3ccccc3)c3ccc(Cl)cc3)CC2)cc1 (centres undefined)", "T/C", "78 % of control"],
  ["CN(C)c1ccc2c(N(C)C)cc(N(C)C)nc2c1", "T/C", "97 % of control"],
  ["NC(CCl)=NCC12CC3CC(CC(C3)C1)C2", "T/C", "114 % of control"],
  ["CCN(C)N=Nc1ccc(C(N)=O)cc1", "T/C", "92 % of control"],
  ["O=c1s[se]c2ccccc12", "T/C", "108 % of control"],
  ["COc1cc2cc[n+](C)c(Cc3ccccc3)c2cc1OC", "T/C", "54 % of control"],
  ["C1CCC2OCCOCCOC3CCCCC3OCCOCCOC2C1 (centres undefined)", "T/C", "89 % of control"],
  ["CSc1ncc2ncn(C3OC(CO)C(O)C3O)c2n1 (centres undefined)", "T/C", "95 % of control"]
]}

* * *

# T/C annotations
- Test system: nude mice, HT29 intrarenal xenograft, tumor weight T/C
- ASSAY TEXT: NCI In Vivo Anticancer Drug Screen. Data for tumor model HT29;CX-1 Human Adenocarcinoma (MER+) (intrarenal inoculation) in NU/NU Swiss (nude) mice
- EXPERIMENTAL PARAMETERS: endpoint: mean tumor weight change; dose: 600.0 mg/kg/injection; schedule: Q04DX004 (sc); vehicle: suspension in saline; higher = larger tumour
Inconclusive results are not listed.

{"columns": ["MOLECULE", "T/C"],
 "data": [
  ["CSC(SC)=C1C(=O)NC(=O)NC1=O", "97 % of control"],
  ["CN(C)N=Nc1cn[nH]c1C(N)=O", "67 % of control"],
  ["N=c1ccn2c(n1)OC1C(O)C(CO)OC12 (centres undefined)", "66 % of control"],
  ["CC(=O)Oc1c(C)[nH]ccc1=O", "112 % of control"],
  ["Nc1ncn(C2OC(CO)C(O)C2O)c(=O)n1 (centres undefined)", "79 % of control"],
  ["O=c1[nH]cnc2[nH]ncc12", "21 % of control"],
  ["CC(=O)OCC1OC(n2ccc(N)nc2=O)C(OC(C)=O)C1OC(C)=O (centres undefined)", "50 % of control"],
  ["COCC(O)Cn1ccnc1[N+](=O)[O-] (centres undefined)", "80 % of control"],
  ["c1cc[c]([Sn]([NH]c2ncnc3[nH]cnc23)([NH]c2ncnc3[nH]cnc23)[c]2ccccc2)cc1", "28 % of control"],
  ["CCCCn1cnc2c(=S)nc[nH]c21", "150 % of control"],
  ["OCC1(CO)COC2(CCCCC2)N1", "115 % of control"],
  ["NC(=S)c1ncn(C2OC(CO)C(O)C2O)c1N (centres undefined)", "102 % of control"],
  ["N=C(N)SCc1cccc2c(=O)cc(-c3ccccc3)oc12", "106 % of control"],
  ["COC1C(/C=C/C(C)=O)OC2OC(C)(C)OC21 (centres undefined)", "20 % of control"]
]}

* * *

# T/C annotations
- System: nude mice, HT29 intrarenal xenograft, tumor weight T/C
- ASSAY TEXT: NCI In Vivo Anticancer Drug Screen. Data for tumor model HT29;CX-1 Human Adenocarcinoma (MER+) (intrarenal inoculation) in NU/NU Swiss (nude) mice
- EXPERIMENTAL PARAMETERS: endpoint: mean tumor weight change; dose: 100.0 mg/kg/injection; schedule: Q01DX010 (sc); vehicle: saline; higher = larger tumour
- Description: The antitumor activity of compounds was measured in mice bearing transplantable tumors. Survival or tumor size were measured and the results are expressed as the measurement made in the treated group (T) divided by the measurement made in the vehicle treated control group (C). The tumor model used in this assay is HT29;CX-1 Human Adenocarcinoma (MER+) (intrarenal inoculation) in NU/NU Swiss (nude) mice
Results filed as inconclusive are left out.
MEASURED PARAMETER: T/C

{"columns": ["COMPOUND", "MEASUREMENT"],
 "data": [
  ["Cc1cn(C2CC3[O][Sn]([c]4ccccc4)([c]4ccccc4)[O]CC3O2)c(=O)[nH]c1=O (stereo unspecified)", "79 % of control"],
  ["CCOC(=O)c1c[nH]c2oc(/C=N/N3CC(CN4CCOCC4)OC3=O)cc2c1=O (stereo unspecified)", "124 % of control"],
  ["NC1=NCN(C2OC(CO)C(O)C2O)C(=O)N1 (stereo unspecified)", "38 % of control"],
  ["CC1(C)N=C(N)N=C(N)N1c1ccc(CCCCc2ccc(S(=O)(=O)F)cc2Cl)c(Cl)c1", "81 % of control"],
  ["CCCC(=O)Nc1ncnc2c1ncn2C1OC2COP(=O)(O)OC2C1OC(=O)CCC (stereo unspecified)", "106 % of control"],
  ["Nc1ncnc2c1ncn2C1OC(COP(=O)(O)O)C(O)C1O (stereo unspecified)", "152 % of control"],
  ["CCCC(=O)O", "69 % of control"],
  ["O=c1[nH]c(=O)n(C2CC(O)C(CO)O2)cc1C(F)(F)F (stereo unspecified)", "202 % of control"],
  ["C1CN2CN3CCN(CN1C3)C2", "93 % of control"],
  ["CCN(CC)CCNc1ccc(C)c2sc3ccccc3c(=O)c12", "87 % of control"],
  ["COc1cc2cc3c4cc(OC)c(OC)cc4cc[n+]3c(C)c2cc1OC (tested in a mixture with another compound)", "68 % of control"]
]}
